Target: human CAT1 (SLC7A1) (Homo sapiens)
Construct: expressed in transfected cells
Sequence (P30825 whole entry): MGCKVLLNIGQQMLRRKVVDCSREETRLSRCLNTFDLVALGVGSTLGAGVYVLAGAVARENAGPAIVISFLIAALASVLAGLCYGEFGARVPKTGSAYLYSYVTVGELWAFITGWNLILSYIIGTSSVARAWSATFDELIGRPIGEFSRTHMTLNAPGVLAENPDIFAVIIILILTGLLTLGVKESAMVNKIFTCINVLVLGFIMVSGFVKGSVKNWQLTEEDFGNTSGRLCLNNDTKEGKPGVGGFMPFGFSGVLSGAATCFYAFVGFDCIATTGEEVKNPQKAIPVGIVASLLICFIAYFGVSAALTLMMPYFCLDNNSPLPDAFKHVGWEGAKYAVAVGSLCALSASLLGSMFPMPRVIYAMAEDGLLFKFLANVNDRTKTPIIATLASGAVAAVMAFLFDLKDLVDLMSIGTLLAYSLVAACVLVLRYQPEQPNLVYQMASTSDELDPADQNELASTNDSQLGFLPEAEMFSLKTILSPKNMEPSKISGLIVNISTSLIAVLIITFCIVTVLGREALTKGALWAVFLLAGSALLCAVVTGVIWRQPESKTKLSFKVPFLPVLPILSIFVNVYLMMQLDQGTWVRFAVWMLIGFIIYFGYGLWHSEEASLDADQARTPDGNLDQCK
Assay: Inhibition of CAT1-mediated substrate uptake in HEK CAT1 cells
Format: cell-based
Details: substrate ADMA 100 µmol/l; inhibitor 1–100000 µmol/l; read-out: IC50 for inhibition of CAT1-mediated uptake of ADMA
reported_metric: IC50
In your response, the unit should come after the numeric value.

**Query** Name the reported IC50 value associated with the molecule NC(N)=NCCCC[C@H](N)C(=O)O [L-homoarginine]
**Result** 642 µM

* * *

Molecular target: human CAT1 (SLC7A1) (Homo sapiens)
Construct: expressed in transfected cells
Assay: Inhibition of CAT1-mediated substrate uptake in HEK CAT1 cells
Format: cell-based
Conditions: read-out: IC50 for inhibition of CAT1-mediated uptake of L-arginine; substrate L-arginine 1000 µmol/l; inhibitor 1–100000 µmol/l
reported_metric: IC50 (µM)
Response body: numeric value in µM, unit text excluded.

**Query** Param readout = IC50; param system = human CAT1 (SLC7A1) (Homo sapiens); param query = NC(N)=NCCCC[C@H](N)C(=O)O ; response: value
**Result** 1320

* * *

Target: human CAT1 (SLC7A1) (Homo sapiens)
Construct: expressed in transfected cells
Test: Inhibition of CAT1-mediated substrate uptake in HEK CAT1 cells
Assay type: cell-based
Conditions: substrate L-homoarginine 100 µmol/l; inhibitor 1-10000 µmol/l; read-out: IC50 for inhibition of CAT1-mediated uptake of L-homoarginine
reported_metric: pIC50
Conceptually, pIC50 converts a concentration in mol/L into minus its log10.

**Query** What does the data say about its pIC50? Entry: CN(C)C(N)=NCCC[C@H](N)C(=O)O [ADMA, asymmetric dimethylarginine, reference compound]
**Result** 3.42

* * *

Parameter: pIC50. Scope: all listed entries.
Target: human CAT2B (SLC7A2B) (Homo sapiens)
Construct: expressed in transfected cells
Sequence (P52569 whole entry): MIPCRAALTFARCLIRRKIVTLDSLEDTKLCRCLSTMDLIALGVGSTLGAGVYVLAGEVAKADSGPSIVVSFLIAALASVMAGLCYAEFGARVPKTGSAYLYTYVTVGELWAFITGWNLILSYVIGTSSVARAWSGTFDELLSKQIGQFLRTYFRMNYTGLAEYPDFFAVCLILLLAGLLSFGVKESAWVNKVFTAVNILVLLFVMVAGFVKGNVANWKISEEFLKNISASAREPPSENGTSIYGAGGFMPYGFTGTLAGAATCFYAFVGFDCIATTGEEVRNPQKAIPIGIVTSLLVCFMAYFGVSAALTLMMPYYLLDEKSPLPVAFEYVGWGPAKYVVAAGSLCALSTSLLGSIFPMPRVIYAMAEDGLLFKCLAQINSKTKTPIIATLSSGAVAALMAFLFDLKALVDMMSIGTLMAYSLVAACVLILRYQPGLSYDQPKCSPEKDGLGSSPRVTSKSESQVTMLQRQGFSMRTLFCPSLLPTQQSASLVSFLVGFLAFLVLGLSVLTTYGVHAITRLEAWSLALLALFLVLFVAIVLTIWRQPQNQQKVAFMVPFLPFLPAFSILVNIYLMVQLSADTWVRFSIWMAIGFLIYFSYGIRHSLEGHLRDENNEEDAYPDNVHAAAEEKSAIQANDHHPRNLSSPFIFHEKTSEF
Experiment: Inhibition of CAT2B-mediated substrate uptake in HEK CAT2B cells
Format: cell-based
Conditions: substrate L-homoarginine 100 µmol/l; inhibitor 1-10000 µmol/l; read-out: IC50 for inhibition of CAT2B-mediated uptake of L-homoarginine
API: returns pIC50 as number; meaning -log10 of concentration in mol/L.

* N=C(N)NCCC[C@H](N)C(=O)O [L-arginine, reference compound] | 2.84

Turning now to a further record.
**Query** So what does the record say about pIC50 for CN(C)C(N)=NCCC[C@H](N)C(=O)O [ADMA, asymmetric dimethylarginine, reference compound] ?
**Result** 3.22
